Value source: patent US4020111A

Test system: CH strain flies
Assay: spray application of pyrethrum, average percent knockdown with time
Assay type: in vivo, housefly (CH strain)
Conditions: pyrethrum 100 + synergist 100 mg/cc, 25 min
measurement kind: average percent knockdown

In the examples that follow, each entry is paired with its recorded average percent knockdown.
| structure smiles string | result |
| --- | --- |
| C#CCON=Cc1cccc2ccccc12 | 40% |
| C#CCON=C(C)c1ccc(Cl)cc1 | 52% |
| C#CCON=Cc1ccc(Cl)cc1Cl | 59% |

API: the following record is the query input.
In: // query average percent knockdown value for entry `C#CCOCc1c(Cl)ccc(Cl)c1Cl`
Out: 55%

* * *

System: CH strain flies
Assay: spray application of pyrethrum, average percent knockdown with time
Type: in vivo, housefly (CH strain)
Conditions: pyrethrum 100 + synergist 100 mg/cc, 5 min
Description: The average percent knockdown of CH strain flies, as a function of time, resulting from spray application of pyrethrum, alone and with synergists, are given in Table XXXXIII. Duplicate tests were performed using 50 CH strain houseflies per test. Test solutions of 100 mg and 200mg of pyrethrum per cc of acetone, 200 mg of synergist per cc of acetone, and a mixture of 100 mg of pyrethrum and 100 mg of synergist per cc of acetone were prepared. […]
measurement kind: average percent knockdown (%)
Give just the number in %; leave the unit off.

Before answering, review these 3 worked examples.
| molecule | average percent knockdown (%) |
| --- | --- |
| C#CCON=Cc1cccc2ccccc12 [I-I] | 4 |
| C#CCON=Cc1ccc(Cl)cc1Cl [I-G] | 7 |
| C#CCOCc1c(Cl)ccc(Cl)c1Cl [II-E] | 5 |

Please examine the following record next.
In: API: value(readout= average percent knockdown, system= CH strain flies, query= C#CCON=C(C)c1ccc(Cl)cc1 [I-D] )
Out: 6

* * *

System: polyvalent resistant (CH strain) houseflies
Assay: whole plant or invertebrate
Format: in vivo, housefly (CH strain)
Settings: CH strain; GS 13798 1 + synergist 2 μg/fly
Description: The effect of O-(2-propynyl) oximes with Dimetilan and with GS 13798 was obtained from tests on polyvalent resistant (CH strain) houseflies that had been chilled and to the dorsal region of which was applied an acetone solution of synergist and insecticide at a ratio of two to one. […] In Table IX, and in the tables following it, the doses of topically applied insecticides and of synergists unless otherwise noted are expressed as micrograms per fly (μg/fly). […]
percent kill after 24 hours values for the molecules below.
Answer as a quantity: numeral, then unit.

| molecule | result |
| --- | --- |
| C#CCOCc1c(Cl)ccc(Cl)c1Cl [II-E] | 100% |
| C#CCOCc1ccc(Cl)c(Cl)c1 [II-C] | 92% |

--- query ---
In: Entry C#CCOCc1ccc(Cl)c(Cl)c1Cl [II-D] has what percent kill after 24 hours?
Out: 100%

* * *

Tested on: mice
Assay: extension of Secobarbital sleeping time by synergists
Assay type: in vivo, Swiss albino white male mice
Conditions: Secobarbital 37 mg/K, synergist 74 mg/K; treated/control
measurement kind: Relative Sleeping Time
Form: value (number only, do not type unit).

Reference set, count: 10
| compound | Relative Sleeping Time |
| --- | --- |
| C#CCON=Cc1cccc([N+](=O)[O-])c1 | 1.5 |
| C#CCOCc1cccc(Cl)c1[N+](=O)[O-] | 1.2 |
| C#CCON=Cc1ccc(Cl)cc1Cl | 1.0 |
| C#CCON=C(C)c1ccc2ccccc2c1 | 1.1 |
| C#CCON=Cc1ccc(N(C)C)cc1 | 1.1 |
| C#CCOCc1ccc(Cl)cc1[N+](=O)[O-] | 1.0 |
| C#CCOCc1ccc(Cl)c([N+](=O)[O-])c1 | 1.0 |
| C#CCOCc1ccc([N+](=O)[O-])cc1Cl | 1.0 |
| C#CCOCc1cccc2ccccc12 | 1.2 |
| C#CCOCc1ccc([N+](=O)[O-])cc1 | 1.1 |

// next entry
In: Lookup: Relative Sleeping Time / mice / C#CCOC(c1ccc(Cl)cc1Cl)C(C)[N+](=O)[O-] (centres unmarked)
Out: 2.3

* * *

Tested on: CH strain flies
Experiment: spray application of pyrethrum, average percent knockdown with time
Assay type: in vivo, housefly (CH strain)
Settings: pyrethrum 100 + synergist 100 mg/cc, 30 min
measurement kind: average percent knockdown (%)
Give just the numeric value; % need not be written.

Some compounds with known average percent knockdown results, for comparison:
| structure smiles string | u | quantitative readout |
| --- | --- | --- |
| C#CCOCc1c(Cl)ccc(Cl)c1Cl | % | 59 |
| C#CCON=C(C)c1ccc(Cl)cc1 | % | 60 |
| C#CCON=Cc1cccc2ccccc12 | % | 49 |

In: I am curious: what average percent knockdown value has been reported for `C#CCON=Cc1ccc(Cl)cc1Cl` ?
Out: 66

* * *

System: mice
Assay: extension of Secobarbital sleeping time by synergists
Assay type: in vivo, Swiss albino white male mice
Details: Secobarbital 37 mg/K, synergist 110 mg/K; treated/control
Description: The selectivity of the synergist compounds of this invention is illustrated by the results of sleeping-time extension tests and of acute toxicity tests on Swiss albino white male mice. The effect of various synergist compounds on sleeping time of sodium secobarbital [Secobarbital] and of 3,3-diethyl-5-methyl-2,4-dioxypiperidine [Noludar] was determined by administering the drug, with and without synergist, to approximately 38-day old male mice weighing from 25 to 30 grams. […]
Quick rule: Relative Sleeping Time of at least 2 means t, below that means f.

| molecule | group |
| --- | --- |
| C#CCOCc1cc(Cl)c(Cl)cc1Cl | f |
| C#CCON=Cc1ccc(N(C)C)cc1 | f |
| C#CCON=Cc1cccc([N+](=O)[O-])c1 | f |

In: Hi, just wondering whether `C#CCOCc1cccc(Cl)c1[N+](=O)[O-]` shows Relative Sleeping Time of 2 or higher.
Out: f

In: Also need `C#CCON=C(C)c1ccc2ccccc2c1` , thanks.
Out: t

In: Same lookup for `C#CCOCc1ccc([N+](=O)[O-])cc1` , please.
Out: f

In: Proceed to `C#CCOCc1ccc([N+](=O)[O-])c(Cl)c1`
Out: f

In: Repeat with `C#CCOCc1ccc([N+](=O)[O-])cc1Cl`
Out: f

In: Follow-up entry: CCOCCOCCOC(C)Oc1ccc2c(c1)OCO2 (stereo not drawn) [Sesoxane, reference compound]
Out: t

In: // next record `C#CCOCc1ccc(Cl)c(Cl)c1`
Out: f

In: Now the molecule `C#CCn1ncc2ccc(Cl)cc21`
Out: f

In: What do you get for `C#CCON=Cc1ccc(Cl)cc1Cl` ?
Out: f

* * *

Tested on: mice
Assay: synergism of acute toxicity of Dimetilan, GS 13005, Secobarbital and Methadone (intraperitoneal)
Type: in vivo, Swiss albino white male mice
Settings: Secobarbital 90 mg/kg + synergist 215 mg/kg
measurement kind: mice lethality (number dead)

Some compounds with recorded mice lethality (number dead):
| compound | measurement kind | result |
| --- | --- | --- |
| CCOCCOCCOC(C)Oc1ccc2c(c1)OCO2 (stereo not drawn) [Sesoxane, reference compound] | mice lethality (number dead) | 6 |
| C#CCOCc1ccc(Cl)cc1[N+](=O)[O-] [II-J] | mice lethality (number dead) | 0 |

In: Entry C#CCOCc1c(Cl)cccc1[N+](=O)[O-] [II-K] : reported mice lethality (number dead) = ?
Out: 1

In: Same for C#CCOCc1c(Cl)cccc1Cl [II-H]
Out: 0

In: Next entry: C#CCOCc1ccccc1[N+](=O)[O-] [II-P, 2-nitrobenzyl 2-propynyl ether]
Out: 0

In: Now give it for C#CCOCc1ccc(Cl)c(Cl)c1Cl [II-D] too.
Out: 1

* * *

Measured Mean Sleeping Time by item
System: mice
Assay: extension of Secobarbital sleeping time by synergists
Type: in vivo, Swiss albino white male mice
Conditions: Secobarbital 37 mg/K, synergist 74 mg/K
Number in min, nothing else.

| structure smiles string | quantitative readout |
| --- | --- |
| C#CCOCc1cccc([N+](=O)[O-])c1Cl | 31 |
| C#CCOCc1ccc([N+](=O)[O-])cc1 | 30 |
| C#CCOCc1ccc(Cl)cc1[N+](=O)[O-] | 27 |
| C#CCOCc1cccc(Cl)c1[N+](=O)[O-] | 31 |

Attention now shifts to the item below.
In: Give the measured Mean Sleeping Time of `C#CCOCc1c(Cl)cccc1Cl` .
Out: 44

* * *

System: Wilson strain house flies
Format: in vivo, house fly (susceptible Wilson strain)
Settings: in vivo
Simple rule here: Contact Synergistic Ratio, Carbaryl (LC50 insecticide alone / LC50 with synergist) less than 100 is t, otherwise f.

Sample answers from the record:
| molecule | group |
| --- | --- |
| C#CCON=Cc1ccc(N(C)C)cc1 | f |
| C#CCON=Cc1ccc(OC)c(OC)c1 | f |
| C#CCOC(c1cccc2ccccc12)C(C)[N+](=O)[O-] (stereo not shown) | t |
| C#CCOC(c1ccc(Cl)cc1Cl)C(C)[N+](=O)[O-] (stereo not shown) | f |

In: Below 100 on Contact Synergistic Ratio, Carbaryl (LC50 insecticide alone / LC50 with synergist)? Entry `C#CCOCc1ccc(Cl)cc1`
Out: t
